src = paper PMC9166630

reportedMetric: melting point (°C)

Solved cases (3 shown):
{"smi": "O=C(Cc1ccc(NC(=O)c2cccc(Cl)c2)cc1)NCc1ccco1", "melting point [°C]": 206}
{"smi": "COc1ccc(C(=O)Nc2ccc(CC(=O)NCc3ccccc3)cc2)cc1Cl", "melting point [°C]": 186}
{"smi": "O=C(Cc1ccc(NC(=O)c2ccccc2)cc1)NCc1ccccc1", "melting point [°C]": 212}

(1) O=C(Cc1ccc(NC(=O)c2cccc(Cl)c2)cc1)NCCc1ccccc1
(2) O=C(Cc1ccc(NC(=O)c2cncc(Cl)c2)cc1)NCc1ccccc1
(Q) Return label of the item with the larger melting point. Candidates: 1 , 2 . Answer = label.
(A) 2
(2: 231 °C, 1: 160 °C)

====

In this section, each of the compounds is paired with its reported IC50.
Tested on: MCF7 (breast) cancer cells
experimentalDetails: SRB cytotoxicity assay, MCF7
Type: cell-based, human
recordedConditions: Homo sapiens, MCF7, 72 h, maximum tested concentration 50 µM, read-out: IC50 ± SEM, MCF7
Answer in µM, number only, no unit symbol.

Solved cases (2 shown):
{"smi": "O=C(Cc1ccc(NC(=O)c2cccc(F)c2)cc1)NCc1ccccc1", "reportedMetric": "IC50", "valueReported": 6.55}
{"smi": "O=C(Cc1ccc(NC(=O)c2cccc(Cl)n2)cc1)NCc1ccccc1", "reportedMetric": "IC50", "valueReported": 0.25}

Now turn to the next compound.
(Q) Look up IC50 of "CCC(=O)Nc1ccc(CC(=O)NCc2ccccc2)cc1" and report it.
(A) 27.7

====

System: HCT116 cell line
experimentalDetails: MTT anti-proliferative assay, HCT116
Assay type: cell-based, human
recordedConditions: 72 h, maximum tested concentration 50 µM, read-out: IC50 ± SEM, HCT116
reportedMetric: pIC50
Convention used: pIC50 is expressed as -log10 of the molar concentration.

(Q) Look up pIC50 of CC(=O)Nc1ccc(CC(=O)NCc2ccccc2)cc1 [Compound 4a, 2-(4-acetamidophenyl)-N-benzylacetamide] and report it.
(A) 4.73

====

The next entries give measured pIC50 for CYP3A4 (Homo sapiens).
pIC50: −log10 of the molar value.

{"smi": "O=C(Cc1ccc(NC(=O)c2cccc(Cl)n2)cc1)NCc1ccccc1", "pIC50": "< 5.00"}

Now turn to the next molecule.
(Q) Look up CYP3A4 (Homo sapiens) data: pIC50 of "O=C(Cc1ccc(NC(=O)c2cccc(Cl)c2)cc1)NCc1ccccc1" , then report it.
(A) < 5.00

====

Tested on: HL60 leukemia cell line
experimentalDetails: CellTiter-Blue cell viability assay, HL60
Type: cell-based
recordedConditions: Homo sapiens, HL-60; positive reference for validation; read-out: IC50, HL60
reportedMetric: IC50 (nM)
Answer in nM, number only, no unit symbol.

(Q) Look up HL60 leukemia cell line data: IC50 of O=C(Cc1ccc(-c2ccc(OCCN3CCOCC3)cc2)cn1)NCc1ccccc1 [KX2-391, Tirbanibulin] , then report it.
(A) 12.1

====

Tested on: human skin fibroblasts (HSF)
experimentalDetails: Normal cell line assay
Assay type: cell-based
recordedConditions: Skin fibroblast
reportedMetric: IC50 (nM)
Answer in nM, number only, no unit symbol.

(Q) Look up IC50 of "O=C(Cc1ccc(NC(=O)c2cccc(Cl)n2)cc1)NCc1ccccc1" and report it.
(A) 270
